Origin of values: ChEMBL document CHEMBL1201862

# key: entry, value: GI50
Test system: UACC-257
test_method_notes: NCI tumour cell line growth inhibition, 48 h
Active and inactive are the calls of the source. Cut-off read from the data, not from the text of the source: active = GI50 up to about 1.1 µM and inactive = higher.
result_type: GI50

>>> result("CC(=O)Nc1cc(Cl)cc(Cl)c1O")
"> 100 µM (inactive)"
>>> result("CCCC(CCC)C(=O)O")
"4530 µM (inactive)"
>>> result("CCN(CC)CCOC(NC(C)=O)(c1ccccc1)c1ccccc1")
"> 100 µM (inactive)"
>>> result("CC1OC(=O)C2CC3CCCCC3C(/C=C/C3CCCC(C)N3C)C12 (stereo not given)")
"> 100 µM (inactive)"
>>> result("Cc1nnc(SCc2nc(C#N)c(C#N)nc2CSc2nnc(C)s2)s1")
"13.8 µM (inactive)"
>>> result("O=C1c2ccccc2C2(c3ccc(Cl)cc3)NCc3ccccc3CN12 (stereo not given)")
"33 µM (inactive)"
>>> result("O=C(NCCN(CCNC(=O)c1cccc(=O)n1O)CCNC(=O)c1cccc(=O)n1O)c1cccc(=O)n1O")
"> 100 µM (inactive)"
>>> result("c1ccc(CN2CCC3(CC2)SSC2(CCN(Cc4ccccc4)CC2)S3)cc1")
"26.7 µM (inactive)"
>>> result("CC(=O)OC1CC[C@@]2(C)C(=CC[C@@H]3[C@@H]2CC[C@]2(C)C(OC(C)=O)[C@H](n4ccnc4)C[C@@H]32)C1 (stereo not given in full)")
"17.3 µM (inactive)"
>>> result("COc1ccc(NC(C)=O)cc1C1CCC(=O)N1 (stereo not given)")
"> 100 µM (inactive)"

---

System: SK-MEL-2
test_method_notes: NCI tumour cell line growth inhibition, 48 h
The source made the active and inactive calls. No stated cut-off is given here; in the data, active = GI50 up to about 1.1 µM and inactive = higher.
Outcome codes: true for active, false for inactive

>>> classification("N#CCC(=O)N/N=C(\\C(=O)Nc1ccc(Cl)c(Cl)c1)C1CN(c2ccccc2)N=C1N (stereo not given)")
"false"
>>> classification("COC(=O)C[C@H](COCc1ccccc1)NC(=O)C[C@H](COCc1ccccc1)NC(=O)C[C@H](COCc1ccccc1)NC(=O)OC(C)(C)C")
"false"
>>> classification("CC(CC(=O)CO[C@H]1[C@H](O)[C@@H](O)[C@@H](O)[C@@H]2NC(=O)c3c(cc4c(c3O)OCO4)[C@H]21)OC1OC(CO)C(O)C(O)C1O (stereo not given in full)")
"true"
>>> classification("COC(=O)Cc1c(-c2[nH]c3ccccc3c2CC(=O)OC)[nH]c2ccccc12")
"false"
>>> classification("CCOC(=O)Nn1cnnc1C")
"false"

---

System: MOLT-4
test_method_notes: NCI tumour cell line growth inhibition, 48 h
Calls of active or inactive are those of the source. Cut-off read from the data, not from the text of the source: active = GI50 up to about 1.1 µM and inactive = higher.
result_type: GI50

>>> result("CCC1CN2CCc3cc(OC)c(OC)cc3C2CC1CC1c2cc(OC)c(OC)cc2CCN1C(=O)C(Cc1c[nH]c2ccccc12)NC(=O)OC(C)(C)C (stereo unspecified)")
"2.47 µM (inactive)"
>>> result("N#CC1C(=S)NC(c2ccccc2)=CC12CCCCC2 (stereo unspecified)")
"20.7 µM (inactive)"
>>> result("O=S1(=O)OCCOS(=O)(=O)C1(Br)Br")
"> 100 µM (inactive)"
>>> result("CC(C)OP(=O)(OC(C)C)/C(=N/Nc1ccc([N+](=O)[O-])cc1)NN")
"61.9 µM (inactive)"
>>> result("COC(=O)[C@]1(C)CCC[C@@]2(C)C1CC[C@]13C=C(C(C)C)[C@H](CC21)CC3(Cl)C#N (stereo partly specified)")
"20 µM (inactive)"
>>> result("C=CCn1c2c(sc1=S)C(S)NC=N2 (stereo unspecified)")
"> 100 µM (inactive)"
>>> result("CCOC(=O)CCC(NC(=O)C(N)c1ccc([N+](=O)[O-])cc1)C(=O)NC(CCC(=O)OCC)C(=O)OCC (stereo unspecified)")
"> 100 µM (inactive)"
>>> result("Cc1ccccc1/C=C/c1csnn1")
"> 100 µM (inactive)"
>>> result("O=C1CC(c2ccccc2)Oc2ccccc21 (stereo unspecified) [FLAVANONE]")
"13.7 µM (inactive)"
>>> result("FC(F)(F)C1(Br)C(c2ccccc2)=C1c1ccccc1")
"2.7 µM (inactive)"
>>> result("CCOC(=O)CCC(=O)C1c2cccc(O)c2C(=O)c2c(O)cccc21")
"2.31 µM (inactive)"
